- ASSAYED_TARGET: T1, ZFP SBS#943 (synthetic)
- T1 chain: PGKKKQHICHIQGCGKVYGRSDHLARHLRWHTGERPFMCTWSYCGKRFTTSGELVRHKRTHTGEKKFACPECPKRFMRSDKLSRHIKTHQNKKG
- METHOD_DESCRIPTION: EMSA
- TEST_PARAMETERS: tags: MBP fusion
MEASURE_NAME: Kd

Q. Any idea what its Kd is? The binder is GGGGCTGGG (dsDNA) DNA 1: GGGGCTGGG DNA 2: CCCAGCCCC
A. 0.067 nM
